The reported numbers originate from paper PMC6768028.

Assay: Antioxidant activity: free radical scavenging method by DPPH assay
Details: 25 μg/ml, 30 min, 517 nm
Procedure: The antioxidant activity of the newly synthesized compounds were evaluated spectrophotometrically using free radical scavenging method by DPPH (2,2-diphenyl-1-picrylhydrazyl) assay. The DPPH is a stable free radical with maximal absorption at 517 nm and is reduced to a corresponding hydrazine when it reacting with hydrogen donors. […] The solution mixture was shaken vigorously and kept in dark place for 30 min at room temperature and absorbance was measured by UV at 517 nm. […]
measured_metric: % inhibition (DPPH), 25 μg/ml (%)
Number only, in %; omit the unit.

Example results:
COc1cc(C=C2SC(=O)NC2=O)cc(OC)c1OC :: 28.61
CN(C)c1ccc(C=C2SC(=O)NC2=O)cc1 :: 19.54
COc1cc(C=C2SC(=O)NC2=O)ccc1O :: 36.94
O=C1NC(=O)C(=Cc2ccc(O)cc2)S1 :: 35.79

Qu. Complete the entry with % inhibition (DPPH), 25 μg/ml for O=C1NC(=O)C(=Cc2ccccc2[N+](=O)[O-])S1
Ans. 29.45

Qu. Report measured % inhibition (DPPH), 25 μg/ml; entry is O=Cc1ccc(C=C2SC(=O)NC2=O)cc1
Ans. 17.91
